Form field: pIC50 (one value per entry).
Target: PI3K β (Homo sapiens, UniProt P42338)
Construct: purchased Millipore
Sequence (P42338 whole entry): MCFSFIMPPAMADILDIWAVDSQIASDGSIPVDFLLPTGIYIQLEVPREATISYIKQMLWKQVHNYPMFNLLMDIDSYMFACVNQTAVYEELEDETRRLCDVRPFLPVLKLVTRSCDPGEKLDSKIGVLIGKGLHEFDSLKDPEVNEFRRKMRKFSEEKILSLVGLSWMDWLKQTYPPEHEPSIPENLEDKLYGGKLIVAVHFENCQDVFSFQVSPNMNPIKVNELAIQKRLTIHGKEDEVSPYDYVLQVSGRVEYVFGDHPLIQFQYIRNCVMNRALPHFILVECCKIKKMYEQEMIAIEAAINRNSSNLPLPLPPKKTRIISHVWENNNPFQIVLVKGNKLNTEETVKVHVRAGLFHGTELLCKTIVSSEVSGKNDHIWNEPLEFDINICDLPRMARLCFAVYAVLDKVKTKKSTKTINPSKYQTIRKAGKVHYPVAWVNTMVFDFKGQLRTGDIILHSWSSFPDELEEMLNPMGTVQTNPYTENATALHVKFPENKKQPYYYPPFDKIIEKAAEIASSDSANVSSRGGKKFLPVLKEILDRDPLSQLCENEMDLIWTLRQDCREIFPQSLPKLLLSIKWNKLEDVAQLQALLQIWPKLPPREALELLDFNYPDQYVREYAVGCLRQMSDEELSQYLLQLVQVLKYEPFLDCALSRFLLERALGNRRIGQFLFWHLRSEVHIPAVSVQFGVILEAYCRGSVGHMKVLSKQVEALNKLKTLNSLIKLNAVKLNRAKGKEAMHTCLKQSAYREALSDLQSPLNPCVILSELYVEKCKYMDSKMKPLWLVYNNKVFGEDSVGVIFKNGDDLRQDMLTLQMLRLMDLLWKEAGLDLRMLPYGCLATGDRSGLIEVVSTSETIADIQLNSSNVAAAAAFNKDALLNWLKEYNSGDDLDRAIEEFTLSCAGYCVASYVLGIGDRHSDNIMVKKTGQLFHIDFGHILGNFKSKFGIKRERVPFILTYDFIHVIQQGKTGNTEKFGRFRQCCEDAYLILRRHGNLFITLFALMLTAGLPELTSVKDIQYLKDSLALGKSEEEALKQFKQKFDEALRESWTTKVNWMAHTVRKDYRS
Sequence (P27986 whole entry partner): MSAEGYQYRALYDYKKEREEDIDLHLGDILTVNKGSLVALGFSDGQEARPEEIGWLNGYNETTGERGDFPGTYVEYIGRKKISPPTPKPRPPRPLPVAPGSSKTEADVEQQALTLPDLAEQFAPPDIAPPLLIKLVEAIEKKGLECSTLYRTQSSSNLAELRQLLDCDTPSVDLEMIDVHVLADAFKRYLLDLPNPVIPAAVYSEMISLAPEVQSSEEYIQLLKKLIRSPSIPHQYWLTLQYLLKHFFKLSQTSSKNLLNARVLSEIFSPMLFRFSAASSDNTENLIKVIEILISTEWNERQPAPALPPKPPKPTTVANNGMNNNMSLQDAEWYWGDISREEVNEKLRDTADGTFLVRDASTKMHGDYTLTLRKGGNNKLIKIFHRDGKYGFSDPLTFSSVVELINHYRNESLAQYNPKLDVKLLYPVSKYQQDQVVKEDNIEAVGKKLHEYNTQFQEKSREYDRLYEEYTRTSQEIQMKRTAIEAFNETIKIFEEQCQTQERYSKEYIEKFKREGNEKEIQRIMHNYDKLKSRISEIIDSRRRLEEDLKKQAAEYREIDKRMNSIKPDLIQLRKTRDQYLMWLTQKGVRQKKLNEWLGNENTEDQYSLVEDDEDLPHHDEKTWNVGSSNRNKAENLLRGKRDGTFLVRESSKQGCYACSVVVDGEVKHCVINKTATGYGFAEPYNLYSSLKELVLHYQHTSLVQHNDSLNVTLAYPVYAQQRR
Assay: PI3-Kinase Promega ADP-Glo Max assay
Format: biochemical
Conditions: 40 nM kinase, 3 mM ATP, 500 uM diC8-PtdInsP
Description: Promega ADP-Glo Max assay kit (Cat. No. V7002) was utilized to determine IC50 values for α, β, δ and γ isoforms of human Class I PI3 kinases (Millipore). […] Plates were then read on Envision plate reader in luminescence mode. […] [formula] where S is the sample luminescence, Pos is a positive control without added PI3K, Neg is the negative control without added compound. […]
pIC50: −log10 of the molar value.

Reference set, count: 3
INSERT INTO assay_data (query_smiles, measure, experimental_result) VALUES
  ('CNS(=O)(=O)c1cccc(-c2cnc(N)c(C(=O)N[C@@H](C)c3cc4cccc(Cl)c4c(=O)n3-c3ccccc3)n2)c1', 'pIC50', '6.00 to 7.00'),
  ('C[C@H](NC(=O)c1nc(-c2cccc(NS(C)(=O)=O)c2)cnc1N)c1cc2cccc(N3CCOCC3)c2c(=O)n1-c1ccccc1', 'pIC50', '< 5.00'),
  ('C[C@H](NC(=O)c1nc(-c2cccc(S(=O)(=O)NC(C)(C)C)c2)cnc1N)c1cc2cccc(Cl)c2c(=O)n1-c1ccccc1', 'pIC50', '5.00 to 6.00');

Query block: Dear colleague, please send me the reported pIC50 for Cc1cnc(C(=O)N[C@@H](C)c2c(Br)c3cccc(Cl)c3c(=O)n2-c2ccccc2)c(N)n1 when you can.
Result block: < 5.00

Query block: Dear colleague, please send me the reported pIC50 for C[C@H](NC(=O)c1c(N)nn2cccnc12)c1c(C#N)c2cccc(F)c2c(=O)n1-c1ccccc1 when you can.
Result block: 6.00 to 7.00

Query block: Supply reported pIC50 belonging to this molecule: C[C@H](NC(=O)c1c(N)nn2cccnc12)c1cc2cccc(C#CCCN)c2c(=O)n1-c1ccccc1
Result block: 5.00 to 6.00

Query block: Provide only the value of recorded pIC50 for CC(=O)Nc1ccc(-c2cccc3cc([C@H](C)NC(=O)c4c(N)nn5cccnc45)n(-c4ccccc4)c(=O)c23)cc1
Result block: < 5.00

====

Molecular target: UniProtKB O00329
Sequence (O00329 whole entry): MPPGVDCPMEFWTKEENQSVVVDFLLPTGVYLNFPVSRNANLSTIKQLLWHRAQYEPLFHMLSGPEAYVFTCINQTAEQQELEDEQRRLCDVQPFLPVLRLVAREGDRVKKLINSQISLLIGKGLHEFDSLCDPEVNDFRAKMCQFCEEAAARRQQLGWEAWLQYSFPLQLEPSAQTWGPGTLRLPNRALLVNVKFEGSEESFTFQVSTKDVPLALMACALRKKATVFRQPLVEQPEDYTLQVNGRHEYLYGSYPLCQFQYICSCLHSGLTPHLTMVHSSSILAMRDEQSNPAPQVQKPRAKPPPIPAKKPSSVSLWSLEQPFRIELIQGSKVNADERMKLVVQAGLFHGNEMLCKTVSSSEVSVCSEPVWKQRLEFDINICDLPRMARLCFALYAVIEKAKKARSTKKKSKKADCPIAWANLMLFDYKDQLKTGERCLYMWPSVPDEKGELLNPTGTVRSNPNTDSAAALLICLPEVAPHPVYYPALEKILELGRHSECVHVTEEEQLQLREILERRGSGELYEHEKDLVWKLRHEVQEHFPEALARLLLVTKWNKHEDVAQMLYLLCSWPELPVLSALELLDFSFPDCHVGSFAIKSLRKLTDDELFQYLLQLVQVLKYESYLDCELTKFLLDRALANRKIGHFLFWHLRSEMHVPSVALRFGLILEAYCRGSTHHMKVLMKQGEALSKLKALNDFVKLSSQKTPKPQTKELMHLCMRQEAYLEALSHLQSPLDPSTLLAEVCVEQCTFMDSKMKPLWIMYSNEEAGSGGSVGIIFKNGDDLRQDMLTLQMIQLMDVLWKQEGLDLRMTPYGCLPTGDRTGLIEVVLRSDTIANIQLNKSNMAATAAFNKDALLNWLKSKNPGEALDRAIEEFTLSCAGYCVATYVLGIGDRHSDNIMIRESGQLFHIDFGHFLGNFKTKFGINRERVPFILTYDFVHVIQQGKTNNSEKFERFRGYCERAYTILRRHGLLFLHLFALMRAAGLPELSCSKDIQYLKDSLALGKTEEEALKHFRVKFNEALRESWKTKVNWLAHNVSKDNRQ
Sequence (P27986 whole entry partner): as the sequence (P27986 whole entry partner) above
Experiment: RAJI p110 δ cellular assay (phospho-AKT);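 note: potency based on lowered phosphorylated AKT in RAJI cells, as a readout of PI3K-δ dependent B-cell receptor signaling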
measure: IC50

Here are 3 compounds together with their reported answers.
INSERT INTO results (query_smiles, target_system, experimental_result) VALUES
  ('C=CC(=O)NCCC#Cc1cccc2cc([C@H](C)NC(=O)c3c(N)nn4cccnc34)n(-c3ccccc3)c(=O)c12', 'UniProtKB O00329', '< 100 nM'),
  ('C[C@H](NC(=O)c1c(N)ncc2cccnc12)c1cc2cccc(Cl)c2c(=O)n1-c1ccccc1', 'UniProtKB O00329', '< 100 nM'),
  ('C[C@H](NC(=O)c1c(N)nn2cccnc12)c1cc2cccc(C(F)(F)F)c2c(=O)n1-c1ccccc1', 'UniProtKB O00329', '< 100 nM');

Query block: Assign IC50 to the following record: C[C@H](NC(=O)c1c(N)nn2cccnc12)c1cc2cccc(C#CCN)c2c(=O)n1-c1ccccc1
Result block: 100 to 1000 nM

Query block: State its IC50 for this compound: C[C@H](NC(=O)c1c(N)nn2cccnc12)c1cc2cccc(C#CCCN)c2c(=O)n1-c1ccccc1
Result block: 100 to 1000 nM

Query block: Give IC50 for the following compound: C[C@H](NC(=O)c1nc(-c2cccc(NS(C)(=O)=O)c2)cnc1N)c1cc2cccc(Cl)c2c(=O)n1-c1ccccc1
Result block: < 100 nM

Query block: Determine from records and report IC50 for CC#Cc1cccc2cc([C@H](C)NC(=O)c3c(N)nn4cccnc34)n(-c3ccccc3)c(=O)c12
Result block: < 100 nM
